method notes: Micelle/water partition coefficient
Assay type: ADME
reported conditions: buffer

- item smiles: "CC(C)C[C@H](NC(=O)[C@H](CC(=O)O)NC(=O)CCCOc1ccc(C(=N)N)cc1)C(=O)O"
  Log Pmw: 1.47
- item smiles: "CN(C(=O)[C@H](CC(=O)O)NC(=O)CCCOc1ccc(C(=N)N)cc1)[C@@H](Cc1ccc(O)cc1)C(=O)O"
  Log Pmw: 1.96
- item smiles: "CC(C)[C@H](NC(=O)[C@H](CC(=O)O)NC(=O)CCCOc1ccc(C(=N)N)cc1)C(=O)O"
  Log Pmw: 1.29
- item smiles: "COC(=O)[C@H](Cc1ccc(O)cc1)NC(=O)[C@H](CC(=O)O)NC(=O)CCCCOc1ccc(C(=N)N)cc1"
  Log Pmw: 2.09
- item smiles: "CC(C)[C@H](NC(=O)[C@H](CC(=O)O)NC(=O)CCCCOc1ccc(C(=N)N)cc1)C(=O)O"
  Log Pmw: 1.32
- item smiles: "CC[C@H](C)[C@H](NC(=O)[C@H](CC(=O)O)NC(=O)CCCOc1ccc(C(=N)N)cc1)C(=O)O"
  Log Pmw: 1.47
- item smiles: "CCCC[C@H](NC(=O)[C@H](CC(=O)O)NC(=O)CCCOc1ccc(C(=N)N)cc1)C(=O)O"
  Log Pmw: 1.58
- item smiles: "N=C(N)c1ccc(OCCCCC(=O)N[C@@H](CC(=O)O)C(=O)N[C@@H](Cc2ccc(O)cc2)C(=O)O)cc1"
  Log Pmw: 1.82

###

Below, each entry is listed alongside its reported Retention time.
method notes: The retention time in min (40 uM)
Type: ADME
reported metric: Retention time

- item smiles: "CC(C)[C@H](NC(=O)[C@H](CC(=O)O)NC(=O)CCCCOc1ccc(C(=N)N)cc1)C(=O)O"
  result value: "6.52 min"
- item smiles: "CC(C)C[C@H](NC(=O)[C@H](CC(=O)O)NC(=O)CCCOc1ccc(C(=N)N)cc1)C(=O)O"
  result value: "7.826 min"
- item smiles: "CC[C@H](C)[C@H](NC(=O)[C@H](CC(=O)O)NC(=O)CCCOc1ccc(C(=N)N)cc1)C(=O)O"
  result value: "7.826 min"
- item smiles: "CN(C(=O)[C@H](CC(=O)O)NC(=O)CCCOc1ccc(C(=N)N)cc1)[C@@H](Cc1ccc(O)cc1)C(=O)O"
  result value: "10.91 min"
- item smiles: "CCCC[C@H](NC(=O)[C@H](CC(=O)O)NC(=O)CCCOc1ccc(C(=N)N)cc1)C(=O)O"
  result value: "8.943 min"
- item smiles: "N=C(N)c1ccc(OCCCCC(=O)N[C@@H](CC(=O)O)C(=O)N[C@@H](CO)C(=O)O)cc1"
  result value: "3.199 min"
- item smiles: "COC(=O)[C@H](Cc1ccc(O)cc1)NC(=O)[C@H](CC(=O)O)NC(=O)CCCCOc1ccc(C(=N)N)cc1"
  result value: "14.28 min"
- item smiles: "N=C(N)c1ccc(OCCCC(=O)N[C@@H](CC(=O)O)C(=O)N[C@@H](Cc2ccc(O)cc2)C(=O)O)cc1"
  result value: "8.23 min"

###

method notes: The retention time in min (30 uM)
Type: ADME

- item smiles: "N=C(N)c1ccc(OCCCCC(=O)N[C@@H](CC(=O)O)C(=O)N[C@@H](CO)C(=O)O)cc1"
  Retention time, min: 3.269
- item smiles: "CC(C)[C@H](NC(=O)[C@H](CC(=O)O)NC(=O)CCCOc1ccc(C(=N)N)cc1)C(=O)O"
  Retention time, min: 5.545
- item smiles: "CN(C(=O)[C@H](CC(=O)O)NC(=O)CCCOc1ccc(C(=N)N)cc1)[C@@H](Cc1ccc(O)cc1)C(=O)O"
  Retention time, min: 13.01
- item smiles: "N=C(N)c1ccc(OCCCCC(=O)N[C@@H](CC(=O)O)C(=O)N[C@@H](Cc2ccc(O)cc2)C(=O)O)cc1"
  Retention time, min: 11.47
- item smiles: "N=C(N)c1ccc(OCCCC(=O)N[C@@H](CC(=O)O)C(=O)N[C@@H](Cc2ccc(O)cc2)C(=O)O)cc1"
  Retention time, min: 9.51
- item smiles: "CC[C@H](C)[C@H](NC(=O)[C@H](CC(=O)O)NC(=O)CCCOc1ccc(C(=N)N)cc1)C(=O)O"
  Retention time, min: 8.773
- item smiles: "CCCC[C@H](NC(=O)[C@H](CC(=O)O)NC(=O)CCCOc1ccc(C(=N)N)cc1)C(=O)O"
  Retention time, min: 10.21
- item smiles: "CN(C(=O)[C@H](CC(=O)O)NC(=O)CCCCOc1ccc(C(=N)N)cc1)[C@@H](Cc1ccc(O)cc1)C(=O)O"
  Retention time, min: 15.67
- item smiles: "CC(C)[C@H](NC(=O)[C@H](CC(=O)O)NC(=O)CCCCOc1ccc(C(=N)N)cc1)C(=O)O"
  Retention time, min: 7.12
- item smiles: "CC(C)(C)C[C@H](NC(=O)[C@H](CC(=O)O)NC(=O)CCCOc1ccc(C(=N)N)cc1)C(=O)O"
  Retention time, min: 12.96
- item smiles: "COC(=O)[C@H](Cc1ccc(O)cc1)NC(=O)[C@H](CC(=O)O)NC(=O)CCCCOc1ccc(C(=N)N)cc1"
  Retention time, min: 17.31
- item smiles: "CC(C)C[C@H](NC(=O)[C@H](CC(=O)O)NC(=O)CCCOc1ccc(C(=N)N)cc1)C(=O)O"
  Retention time, min: 8.773
